# tgt: T1, human GPC3 on cells (human, UniProt P51654 25-554)
# T1 construct: whole, on cells; over-expressed on CHOK1 cells or endogenous on HEPG2, Hep3B and Huh-7 hepatocellular carcinoma cells; the cell line is named under assay; also called GPC3-CHOK1 cells; human GPC3 over-expressed CHOK1 cells
# experiment.description: FACS, GPC3-CHOK1 cells
Doc: threshold 0.2 µg/mL (exclusive). Items with EC50 beneath it return True; others return False.

163E7D12 chimeric mAb (antibody, V domains shown) VH: QVQLQQSGAELVRPGASVTLSCKASGYTFTDYEMHWVKQTPVHGLEWIGAIGPETGSTAYNQRFKGKAIVTADKSSSTAYMELRSLTSEDSAVYYCTRYYSFAYWGQGTLVTVSA VL: DVVMTQTPLSLPVSLGGQASISCRSSQSLVHSNGNTYLQWYLQKPGQSPKLLIFKVSNRFSGVPDRFSGSGSGTDFTLKISRVEAEDLGVYFCFQSIHVPYTFGGGTKLEIK : True
18C1D9 chimeric mAb (antibody, V domains shown) VH: QVQLQQSGAELVRPGASVTLSCKASGYTFSDYEMHWVKQTPVHGLEWIGAIDPETGGTAYNQKFKGKATLTADKSSSTAYMELRSLTSEDSAVYYCTRYYSYAYWGQGTLVTVSA VL: DVVMTQSPLSLPVSLGDQASISCRSRQSLVHSNGNTYLQWYLQKPGQSPKLLIYKVSNRFSGVPDRFSGSGSGTDFTLKISRVEAEDLGVYFCFQSIHVPYTFGGGTKLEKK : False
152E9F7 chimeric mAb (antibody, V domains shown) VH: QVQLQQSGAELVRPGASVTLSCKASGYTFTDYEIHWVKQTPVHGLEWIGAIDPETGDTAYTQKFKGKAILTADKSSNTVYMELRSLTSEDSAVYYCTRFYSYAYWGQGTLVTVSA VL: DVVMTQTPLSLPVSLGDQASISCRSSQSLVHTNGHTYLQWYLQKSGQSPKLLIYKVSNRFSGVPDRFSGSGSGTDFTLKISRVEAEDLGVYFCSQSTHVPYTFGGGTKLEIK : True
52H5D3B8 chimeric mAb (antibody, V domains shown, also called 52H5D3B8-VH+VL; chimeric 52H5D3B8 mAb) VH: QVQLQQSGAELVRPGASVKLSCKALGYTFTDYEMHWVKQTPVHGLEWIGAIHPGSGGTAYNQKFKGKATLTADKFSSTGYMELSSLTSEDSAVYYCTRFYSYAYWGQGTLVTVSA VL: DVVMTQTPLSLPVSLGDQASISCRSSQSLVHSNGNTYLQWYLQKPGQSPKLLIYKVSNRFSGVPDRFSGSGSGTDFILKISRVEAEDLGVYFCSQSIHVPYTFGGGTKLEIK : True
171F9C5 chimeric mAb (antibody, V domains shown) VH: QVQLQQSGAELVRPGASVTLSCKASGYTFTDYEIHWVKQTPVHGLEWIGAIDPETDNTAYSQKFKGKAILTADKSSSTAYMELRSLTSEDSAVYYCTRYYSYAYWGQGTLVTVSA VL: DVVMTQTPLSLPVSLGDQASISCRSSQSPVHRNGNTYLHWYLQKPGQSPKLLIFKVSNRFSGVPDRFSGSGSGTDFTLKISRVAAEDLGVYFCSQTTHVPYTFGGGTKLEIK : True
172B4E9 chimeric mAb (antibody, V domains shown) VH: QVQLQQSGAELVRPGASVTLSCKASGYTFTDYEIHWVKQTPVHGLEWIGAIDPATGDTAYTQKFKGKAILTADTSSNTVYMELRGLTSEDSAVHFCTRFYSYAYWGQGTLVTVSA VL: DVVMTQTPLSLPVSLGDQASISCRSSQSLVHTNGHTYLQWYLQKSGQSPRLLIFKVSNRFSGVPDRFSGSGSGTDFKLKISRVEAEDLGVYFCSQSTHVPYTFGGGTKLEIK : False
